System: chickweed (common chickweed, Stellaria media)
assay-overview: Test C postemergence
Format: in vivo
settings: Stellaria media, post-emergence; Postemergence, 125 g ai/ha, scale 0 to 100; read-out: Plant response rating, Chickweed
Collected pest or weed control at 125 g/ha values appear next to each entry.

structure	pest or weed control at 125 g/ha / %
N#Cc1cccc(Oc2ncc(C(F)(F)F)cn2)c1Oc1ncc(Cl)cn1	90
N#Cc1cccc(Oc2ncc(Cl)cn2)c1Oc1cnc(Cl)cn1	85
Fc1cccc(Oc2ncc(Cl)cn2)c1Oc1ncc(Cl)cn1	100
Clc1cnc(Oc2cccc(Cl)c2Oc2ncc(Br)cn2)nc1	60
Fc1cccc(Oc2ncc(C(F)(F)F)cn2)c1Oc1ncc(Cl)cn1	95

----------
Tested on: yellow nutsedge (Cyperus esculentus)
assay-overview: Test C preemergence
Format: in vivo
settings: Cyperus, pre-emergence, 336 h; 125 g ai/ha, preemergence; scale 0 to 100; read-out: Plant response rating, Nutsedge, Yellow

structure	pest or weed control at 125 g/ha
Fc1ccc(F)c(Oc2ncc(Cl)cn2)c1Oc1ncc(Cl)cn1	5%
Clc1cnc(Oc2cccc(Cl)c2Oc2ncc(Br)cn2)nc1	55%
N#Cc1cccc(Oc2ncc(Cl)cn2)c1Oc1cnc(Cl)cn1	75%
N#Cc1cccc(Oc2ncc(Cl)cn2)c1Oc1ccc(Br)cn1	25%
Fc1cnc(Oc2c(F)cccc2Oc2ncc(Cl)cn2)nc1	60%
N#Cc1cccc(Oc2ncc(Cl)cn2)c1Oc1ncc(Cl)cn1	55%
Fc1cnc(Oc2c(F)ccc(F)c2Oc2ncc(F)cn2)nc1	40%
Fc1cnc(Oc2c(Br)cccc2Oc2ncc(Cl)cn2)nc1	60%
Fc1cccc(Oc2ncc(C(F)(F)F)cn2)c1Oc1ncc(Cl)cn1	75%

----------
Test system: velvetleaf (Abutilon theophrasti)
assay-overview: Test C preemergence
Format: in vivo
settings: Abutilon theophrasti, pre-emergence; 62 g ai/ha, preemergence; scale 0 to 100; read-out: Plant response rating, Velvetleaf
endpoint-label: pest or weed control at 62 g/ha (%)

structure	unit-of-measurement	observed-result
FC(F)c1cccc(Oc2ncc(Cl)cn2)c1Oc1ncc(Cl)cn1	%	95
Fc1cccc(Oc2ncc(C(F)(F)F)cn2)c1Oc1ncc(Cl)cn1	%	100
Clc1cnc(Oc2cccc(Br)c2Oc2ncc(Cl)cn2)nc1	%	100

----------
System: blackgrass (Alopecurus myosuroides)
assay-overview: Test C postemergence
Format: in vivo
settings: Alopecurus myosuroides, post-emergence, 336 h; Postemergence, 31 g ai/ha, scale 0 to 100; read-out: Plant response rating, Blackgrass
endpoint-label: pest or weed control at 31 g/ha (%)

compound	endpoint-label	observed-result
N#Cc1cccc(Oc2ncc(Cl)cn2)c1Oc1cnc(Cl)cn1 [Compound 32]	pest or weed control at 31 g/ha	5
Fc1cccc(Oc2ncc(Cl)cn2)c1Oc1ccc(Cl)nc1 [Compound 20]	pest or weed control at 31 g/ha	5
N#Cc1cccc(Oc2ncc(Cl)cn2)c1Oc1ccc(Cl)cn1 [Compound 16]	pest or weed control at 31 g/ha	5
Fc1cccc(Oc2ncc(Cl)cn2)c1Oc1ncc(Cl)cn1 [Compound 21]	pest or weed control at 31 g/ha	5
Fc1cnc(Oc2c(F)cccc2Oc2ncc(Cl)cn2)nc1 [Compound 23]	pest or weed control at 31 g/ha	0

----------
Test system: pigweed (Amaranthus retroflexus)
assay-overview: Test A postemergence
Format: in vivo
settings: Amaranthus retroflexus, post-emergence, 240 h, 125 g ai/ha, 0 to 100 scale, read-out: Plant response rating, Pigweed
endpoint-label: pest or weed control at 125 g/ha (%)

structure	observed-result
N#Cc1cccc(Oc2ncc(Cl)cn2)c1Oc1ccccc1Cl	30
Fc1ccc(F)c(Oc2ncc(Cl)cn2)c1Oc1ncc(Cl)cn1	80
Fc1ccc(F)c(Oc2ncc(Br)cn2)c1Oc1ncc(Br)cn1	90

----------
Tested on: large (Lg) crabgrass (Digitaria sanguinalis)
assay-overview: Test C postemergence
Type: in vivo
settings: Digitaria sanguinalis, post-emergence, 336 h; Postemergence, 125 g ai/ha, scale 0 to 100; read-out: Plant response rating, Crabgrass, Large

molecule	pest or weed control at 125 g/ha, %
N#Cc1cccc(Oc2ncc(Cl)cn2)c1Oc1ncc(C(F)(F)F)cn1 [Compound 38]	30
Fc1ccc(F)c(Oc2ncc(Cl)cn2)c1Oc1ncc(Cl)cn1 [Compound 34]	5
Fc1cccc(Oc2ncc(C(F)(F)F)cn2)c1Oc1ncc(Cl)cn1 [Compound 42]	40

----------
System: rice (Oryza sativa)
assay-overview: Test B flooded paddy
Format: in vivo
settings: Oryza sativa, 336 h; 250 g ai/ha, Flood, 13 to 15 days, scale 0 (no effect) to 100 (complete control); read-out: Plant response rating, Rice
Collected plant injury at 250 g/ha values appear next to each entry.
endpoint-label: plant injury at 250 g/ha (%)

structure	endpoint-label	unit-of-measurement	observed-result
N#Cc1cccc(Oc2ncc(Cl)cn2)c1Oc1cccc(Cl)c1	plant injury at 250 g/ha	%	0
Fc1cnc(Oc2c(Br)cccc2Oc2ncc(Cl)cn2)nc1	plant injury at 250 g/ha	%	45
Fc1cccc(Oc2ncc(Cl)cn2)c1Oc1ncc(Br)cn1	plant injury at 250 g/ha	%	60
Fc1ccc(F)c(Oc2ncc(Cl)cn2)c1Oc1ncc(Cl)cn1	plant injury at 250 g/ha	%	0
FC(F)c1cnc(Oc2c(Br)cccc2Oc2ncc(Cl)cn2)s1	plant injury at 250 g/ha	%	0
N#Cc1cccc(Oc2ncc(Cl)cn2)c1Oc1ncc(Cl)cn1	plant injury at 250 g/ha	%	35
N#Cc1cccc(Oc2ncc(C(F)(F)F)cn2)c1Oc1ncc(Cl)cn1	plant injury at 250 g/ha	%	50
FC(F)c1cccc(Oc2ncc(Br)cn2)c1Oc1ncc(Cl)cn1	plant injury at 250 g/ha	%	0

----------
Tested on: galium (catchweed bedstraw, Galium aparine)
assay-overview: Test C postemergence
Assay type: in vivo
settings: Galium, post-emergence, 336 h; Postemergence, 31 g ai/ha, scale 0 to 100; read-out: Plant response rating, Galium
Collected pest or weed control at 31 g/ha values appear next to each entry.
endpoint-label: pest or weed control at 31 g/ha (%)

structure	endpoint-label	observed-result
N#Cc1cccc(Oc2ncc(Cl)cn2)c1Oc1ncc(Br)cn1	pest or weed control at 31 g/ha	55
FC(F)c1cccc(Oc2ncc(Cl)cn2)c1Oc1ncc(Cl)cn1	pest or weed control at 31 g/ha	60
N#Cc1cccc(Oc2ncc(Cl)cn2)c1Oc1ncc(C(F)(F)F)cn1	pest or weed control at 31 g/ha	85

These entries and their values trace back to patent US20170190671A1.
